Recorded pKd, one value per entry.
Target of assay: T1, recombinant human CD38 extracellular domain protein (ACROBiosystems, Cat #CD8-H5224) (human, UniProt P28907 43-300)
T1 construct: Bought protein; also called recombinant human CD38 protein
Run description: BLI (Octet 384), IgG on anti-human IgG Fc biosensors, soluble human CD38 as analyte, 1:1 global fit
Here pKd is given on a logarithmic scale as minus log10 of the concentration in mol/L.

Binder | Measured value
IgG E-1 (antibody, V domains shown, also called chimeric IgG of Clone E) VH: QVQLQQSGAELVRPGTSVKMSCKAAGYTFTNHWIEWVKQRPGHGLEWIGDIFPGGGYTDYNEKFKGKATLTADTSSSTAYMQLSSLTSEDSAIYYCARGRDLAMDYWGQGTSVTVSS VL: DIQMNQSPSSLSASLGDTITITCHASQNINVWLGWYQQKPGNIPKLLIYKASNLHTGVPSRFSGSGSGTGFTLTISSLQPEDIATYYCQQGQSYPYTFGGGTKLEIK | 8.70
IgG B-1 (antibody, V domains shown, also called chimeric IgG of Clone B) VH: QAYLQQSGAEVVRSGASVKMSCKAAGYTFTSYNMHWVKQTPGQGLEWIGYIYPGNGGTNYNQKFKGKATLTADTSSTTAYMQISSLTSEDSAVYFCARGASMITTGAWFAYWGQGTLVTVSA VL: NIVLTQSPASLAVSLGQRATISCRASESLDTYGNSFMYWYQQKPGQPPKLLIYLASSLESGVPARFSGSGSRTDFTLTIDPVEADDAATYYCHQNHEDPWTFGGGTKLEIK | 9.28

stdin: Record request: pKd value, item IgG B-2 (antibody, V domains shown, also called humanized Clone B IgG (BVH1 / BVL1)) VH: QVQLVQSGAEVKKPGSSVKVSCKASGYTFTSYNMHWVRQAPGQGLEWMGYIYPGNGGTNYNQKFKGRVTITADESTSTAYMELSSLRSEDTAVYYCARGASMITTGAWFAYWGQGTLVTVSS VL: DIQMTQSPSSVSASVGDRVTITCRASESLDTYGNSFMYWYQQKPGKAPKLLIYLASSLESGVPSRFSGSGSGTDFTLTISSLQPEDFATYYCHQNHEDPWTFGQGTKVEIK
stdout: 9.10
